target: AAK1 (121-471) (Homo sapiens); assay: STD-NMR fragment screening, AAK1; format: binding; conditions: 1 = hit, 0 = no hit
Sequence (Q2M2I8 46-315 limits assumed): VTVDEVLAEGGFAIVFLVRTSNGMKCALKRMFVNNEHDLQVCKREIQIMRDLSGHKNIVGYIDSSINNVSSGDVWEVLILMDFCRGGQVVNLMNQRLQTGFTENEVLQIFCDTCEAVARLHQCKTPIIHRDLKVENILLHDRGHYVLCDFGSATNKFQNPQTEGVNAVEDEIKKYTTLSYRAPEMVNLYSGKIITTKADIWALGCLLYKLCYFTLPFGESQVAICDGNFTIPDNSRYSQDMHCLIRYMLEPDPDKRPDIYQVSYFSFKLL
Field: AAK1 (STD-NMR hit flag). Provide a value for each of the compounds that follow.
Just the number.

Answer with the recorded AAK1 (STD-NMR hit flag) of "Cn1c(Cl)c(C#N)c(=O)n(C)c1=O" only. 1

Answer with the recorded AAK1 (STD-NMR hit flag) of CCC(N)c1ccc(Cl)cc1 (centres unmarked) only. 1

Answer with the recorded AAK1 (STD-NMR hit flag) of "Nc1c(Cl)ccc(O)c1Cl" only. 1

Answer with the recorded AAK1 (STD-NMR hit flag) of "O=C(O)c1cccc(Cl)n1" only. 0

Answer with the recorded AAK1 (STD-NMR hit flag) of "Nc1ccc(C(=O)O)c(Cl)c1" only. 0

Answer with the recorded AAK1 (STD-NMR hit flag) of "Clc1n[nH]c2ccccc12" only. 1

Answer with the recorded AAK1 (STD-NMR hit flag) of "OB(O)c1ccc(Cl)nc1F" only. 0

Answer with the recorded AAK1 (STD-NMR hit flag) of "Cc1c(Cl)c(C(=O)O)nn1C" only. 0

Answer with the recorded AAK1 (STD-NMR hit flag) of "NC(=O)c1cc2c(nc1Cl)CCC2" only. 0

Answer with the recorded AAK1 (STD-NMR hit flag) of "O=C(O)c1cc(Br)c[nH]1" only. 0

Answer with the recorded AAK1 (STD-NMR hit flag) of "Nc1cc(Cl)cc([N+](=O)[O-])c1O" only. 0

Answer with the recorded AAK1 (STD-NMR hit flag) of "O=C(O)C(=O)Nc1ccc(Cl)cn1" only. 0

Answer with the recorded AAK1 (STD-NMR hit flag) of "Cc1noc(C)c1Br" only. 0

Answer with the recorded AAK1 (STD-NMR hit flag) of "COc1ncc(Cl)cc1C(=O)O" only. 0

Answer with the recorded AAK1 (STD-NMR hit flag) of "NCc1cc(Br)no1" only. 0

Answer with the recorded AAK1 (STD-NMR hit flag) of "CN1CCN(c2ccc(Br)cn2)CC1" only. 0

Answer with the recorded AAK1 (STD-NMR hit flag) of "Oc1ccc(Cl)cc1" only. 0

Answer with the recorded AAK1 (STD-NMR hit flag) of "NC(=O)c1nc(Cl)n[nH]1" only. 0

Answer with the recorded AAK1 (STD-NMR hit flag) of "Cn1c2nc(Br)nc-2c(O)n(C)c1=O" only. 1

Answer with the recorded AAK1 (STD-NMR hit flag) of "Clc1ccc(CN2CCNCC2)s1" only. 0

----------
Field: CAMK1G (STD-NMR hit flag). Provide a value for each of the molecules that follow.
Biological target: CAMK1G (1-320) (Homo sapiens)
Construct: made in house; host or cells: E. coli BL21 (DE3) pLysS
Sequence (Q96NX5 1-320): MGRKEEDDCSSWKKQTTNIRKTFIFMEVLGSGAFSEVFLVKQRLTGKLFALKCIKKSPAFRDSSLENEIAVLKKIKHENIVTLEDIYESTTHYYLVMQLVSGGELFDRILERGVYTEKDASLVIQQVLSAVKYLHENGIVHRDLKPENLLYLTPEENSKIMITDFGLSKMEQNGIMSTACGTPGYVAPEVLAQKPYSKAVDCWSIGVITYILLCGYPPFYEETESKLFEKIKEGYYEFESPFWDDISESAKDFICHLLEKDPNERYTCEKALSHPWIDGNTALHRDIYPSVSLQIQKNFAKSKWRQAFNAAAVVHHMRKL
Experiment: STD-NMR fragment screening, CAMK1G
Assay type: binding
Details: 1 = hit, 0 = no hit
Description: All fragments were stored at −20°C as solids in argon flushed glass bottles. For NMR screening, fragments were weighed and dissolved in DMSO-d6 to a stock concentration of 300 mM. Mother plates were prepared with a 100 mM concentration. […] Fifteen of these compounds contain the same halogen twice. […] As fragment mixtures can lead to competitive effects between their fragments, it is not advised to use the quantification of peak mixtures for hit ranking.
Just the number.

// fetch CAMK1G (STD-NMR hit flag) for Brc1cccc2c1CNC2 [Fragment B02291212] ; system: CAMK1G (1-320) (Homo sapiens) 0

// fetch CAMK1G (STD-NMR hit flag) for Brc1cnn(-c2nnn[nH]2)c1 [Fragment B02290113] ; system: CAMK1G (1-320) (Homo sapiens) 0

// fetch CAMK1G (STD-NMR hit flag) for Cc1noc(C)c1Br [Fragment B02289596] ; system: CAMK1G (1-320) (Homo sapiens) 1

// fetch CAMK1G (STD-NMR hit flag) for COc1ncc(C(=O)O)cc1Cl [Fragment B02297423] ; system: CAMK1G (1-320) (Homo sapiens) 1

// fetch CAMK1G (STD-NMR hit flag) for Cc1nn(C)c(Cl)c1S(N)(=O)=O [Fragment B02290522] ; system: CAMK1G (1-320) (Homo sapiens) 0

// fetch CAMK1G (STD-NMR hit flag) for Clc1cncc(-n2cccn2)n1 [Fragment B02291256] ; system: CAMK1G (1-320) (Homo sapiens) 1

// fetch CAMK1G (STD-NMR hit flag) for Clc1ccncc1 [Fragment B02291269] ; system: CAMK1G (1-320) (Homo sapiens) 0

// fetch CAMK1G (STD-NMR hit flag) for O=C1Nc2cccc(Cl)c2C1=O [Fragment B02291255] ; system: CAMK1G (1-320) (Homo sapiens) 0

// fetch CAMK1G (STD-NMR hit flag) for N#Cc1ccnc(Cl)c1 [Fragment B02291271] ; system: CAMK1G (1-320) (Homo sapiens) 0

// fetch CAMK1G (STD-NMR hit flag) for Clc1ncnc2cc[nH]c12 [Fragment B02289595] ; system: CAMK1G (1-320) (Homo sapiens) 1
